tested.system: N-terminally FLAG-tagged PARP2 (amino acids 1-583) (Homo sapiens)
Construct: N-terminally FLAG-tagged PARP2 (amino acids 1-583)
Sequence (Q9UGN5 whole entry, the tested form may be a part): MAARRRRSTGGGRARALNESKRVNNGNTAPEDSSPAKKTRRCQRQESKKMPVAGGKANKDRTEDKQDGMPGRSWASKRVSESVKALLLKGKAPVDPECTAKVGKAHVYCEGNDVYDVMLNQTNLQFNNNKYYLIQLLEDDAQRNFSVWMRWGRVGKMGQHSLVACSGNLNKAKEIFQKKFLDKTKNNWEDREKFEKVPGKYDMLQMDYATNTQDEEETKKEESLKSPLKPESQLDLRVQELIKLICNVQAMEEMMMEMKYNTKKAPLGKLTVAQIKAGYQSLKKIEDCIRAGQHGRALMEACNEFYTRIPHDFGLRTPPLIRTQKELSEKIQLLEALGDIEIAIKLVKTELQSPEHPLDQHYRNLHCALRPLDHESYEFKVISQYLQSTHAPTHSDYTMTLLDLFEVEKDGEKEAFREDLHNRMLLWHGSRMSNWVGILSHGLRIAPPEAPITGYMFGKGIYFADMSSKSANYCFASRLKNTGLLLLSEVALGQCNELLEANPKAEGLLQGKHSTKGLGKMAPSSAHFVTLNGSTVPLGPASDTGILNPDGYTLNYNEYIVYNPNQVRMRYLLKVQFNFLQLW
test.details: PARP2 probe displacement HTRF assay
Format: binding
reported.conditions: binned Kd, probe displacement HTRF
pKd: −log10 of the molar value.
assay.endpoint: pKd

For this compound ( CNC(=O)c1ccc(N2CCC(N3CCC(c4cc5ncc(F)cc5c(=O)[nH]4)C3)CC2)cn1 (racemic) [Compound 315rac] ), measured pKd is 6.00 to 7.00

For this compound ( CNC(=O)c1csc(N2CCC(N3CCC(c4cc5ccccc5c(=O)[nH]4)C3)CC2)n1 (single isomer, unassigned) [Compound 274a] ), measured pKd is 5.00 to 6.00

For this compound ( CCc1ccc(C2CCN(C3CCN(c4cnc(C(=O)NC)nc4C)CC3)C2)[nH]c1=O (single isomer, unassigned) [Compound 246a] ), measured pKd is < 5.00

For this compound ( "CNC(=O)c1ccc(N2CCC(N3CC4(c5nc6ncc(F)cc6c(=O)[nH]5)CC3C4)CC2)cn1" ), measured pKd is < 5.00

For this compound ( "CNC(=O)c1ccc(N2CCC(N3CC4(c5nc6ccc(F)cc6c(=O)[nH]5)CC3C4)CC2)c(C#N)n1" ), measured pKd is 6.00 to 7.00

For this compound ( CNC(=O)c1ccc(N2CCC(N3CCC(c4[nH]c(=O)c5ccccc5c4Cl)C3)CC2)cn1 (single isomer, unassigned) [Compound 219b] ), measured pKd is 6.00 to 7.00

Data provenance: patent US20250152585A1
